# Tested on: Fibroblast
# MEASUREMENT DESCRIPTION: Incucyte cell viability with human fibroblast; note: unitless GR value; below 1 slowed growth and below 0 cell loss
# Format: toxicity, cell-based
# CONDITIONS: 12 h, 10 µM, compound concentration 10 uM, replicate number 1
The compounds listed here are annotated with their Growth Rate.

COMPOUND: O=C1C[C@@H]2OCC=C3CN4CC[C@]56c7ccccc7N1[C@H]5[C@H]2[C@H]3C[C@H]46 [STRYCHNINE]
RESULT: -0.92

COMPOUND: c1ccc2c(c1)SCc1c-2[nH]c2ccccc12
RESULT: -0.96

COMPOUND: Nc1nccc(-c2ccn3c(N)nccc23)n1
RESULT: -0.17

Enquiry: Fill in: Growth Rate of "Cc1ccc(C)c(OCCCC(C)(C)C(=O)O[C@@H]2O[C@H](C(=O)O)[C@@H](O)[C@H](O)[C@H]2O)c1" is ___
Return: -1

Enquiry: // next record "CCc1nc(-c2cccc(C)c2)c(-c2ccncc2)s1"
Return: 0.95

Enquiry: "COCCOCn1c(S(C)(=O)=O)nc2c1c(=O)n(C)c(=O)n2C" , same question.
Return: 0

Enquiry: And the next one, "CCc1cncnc1N1CCN(Cc2nc3cc(C(F)(F)F)ccc3[nH]2)CC1" ?
Return: -1

Enquiry: Field entry: "CC(C)N(C(=O)C1CCOCC1)c1cc(F)c(Oc2ncc(Cn3nccn3)cc2C(F)(F)F)cc1C(=O)O"
Return: 0.85

Enquiry: And what about the compound "CC[C@](C)(O)C#Cc1cc2c(ccn2-c2cc(OC)nc(N)n2)cn1" ?
Return: -1

Enquiry: Input COc1cc(N)c(Cl)cc1C(=O)NC1CN2CCC1CC2.Cl (stereo not given)
Return: 0.48

The origin of these recorded values is ChEMBL document CHEMBL5303304.
